# testedOn: T1, Anti-CD28 Fab (SEQ ID NOs: 696, 697)
# T1 construct: In the phage ELISA the Fab was biotinylated and captured on neutravidin coated plates
# procedureDetails: phage binding ELISA on plate-captured anti-CD28 Fab pre-incubated with CD28 antigen as competitor
Where no end group is shown, it is not given here.
assayMetric: Anti-CD28 Fab signal in the presence of CD28 (phage binding ELISA)

binder	experimentalValue
YCQGHFPQYMAKCL (cysteine pairing not given here; also: displayed on phage by fusion to pIII, linker and pIII sequence not given here, Tested as clonal phage supernatant) [Phage-1226]	0.07
YCDGHLPEYMLKCL (cysteine pairing not given here; also: displayed on phage by fusion to pIII, linker and pIII sequence not given here, Tested as clonal phage supernatant) [Phage-1229]	0.09
YCEGHDIRYMMKCL (cysteine pairing not given here; also: displayed on phage by fusion to pIII, linker and pIII sequence not given here, Tested as clonal phage supernatant) [Phage-1232]	0.08
YCDGHEERYMAKCL (cysteine pairing not given here; also: displayed on phage by fusion to pIII, linker and pIII sequence not given here, Tested as clonal phage supernatant) [Phage-1233]	0.06
YCFGHFPEYMAKCL (cysteine pairing not given here; also: displayed on phage by fusion to pIII, linker and pIII sequence not given here, Tested as clonal phage supernatant) [Phage-1222]	0.07
YCAGHTPEYLDKCL (cysteine pairing not given here; also: displayed on phage by fusion to pIII, linker and pIII sequence not given here, Tested as clonal phage supernatant) [Phage-1231]	0.06
